# Tested on: P. aeruginosa
# METHOD_SUMMARY: P. aeruginosa thigh infection mouse model, IV dosing
# Assay type: in vivo, Pseudomonas aeruginosa
# MEASUREMENT_SETUP: CFU change at 12 h vs no treatment control, PMB values in parenthesis side-by-side
Starred links: 1 amine or outer side, 2 acyl side, 3 side chain; linkers in the order of their positions; H or OH if unused. Positions of bridges follow the written chain, without caps; N, C: chain ends. Non-standard residues stand in square brackets, D forms with d. Residues, ends and D or L forms follow the SMILES beside them. ξ: configuration not given here. *: point of attachment. X3 = CCCCCCCC(=O)O[C@@H](CCN)C(=O)*; Thr(3ξ) = CC(O)[C@H](N)C(=O)O; Suc = O=C(CCC(=O)[*:2])[*:1]; X1 = CCC(C)(C)C(=O)OCCC(=O)*; X2 = CCCC(C)OC(=O)CCC(=O)*; Dab = NCC[C@H](N)C(=O)O
Exercise: state measured P. aeruginosa Thigh model, IV dosing ΔlogCFU at 5 mg/kg for each of the molecules provided.
I'd appreciate a reply containing only the number, no unit.

IN: Fill blank: measured P. aeruginosa Thigh model, IV dosing ΔlogCFU at 5 mg/kg of the molecule CCCC(C)OC(=O)CCC(=O)N[C@@H](CCN)C(=O)N[C@H](C(=O)N[C@@H](CCN)C(=O)N[C@H]1CCNC(=O)[C@H](C(C)O)NC(=O)[C@H](CCN)NC(=O)[C@H](CCN)NC(=O)[C@H](CC(C)C)NC(=O)[C@@H](Cc2ccccc2)NC(=O)[C@H](CCN)NC1=O)C(C)O (stereo partly shown) [Example 18] (X2-[Dab][Thr(3ξ)][Dab][Dab][Dab][dF]L[Dab][Dab][Thr(3ξ)]; lactam 4-C) is ____.
OUT: −1.29

IN: Note, next up: CCC(C)(C)C(=O)OCCC(=O)N[C@@H](CCN)C(=O)N[C@H](C(=O)N[C@@H](CCN)C(=O)N[C@H]1CCNC(=O)[C@H](C(C)O)NC(=O)[C@H](CCN)NC(=O)[C@H](CCN)NC(=O)[C@H](CC(C)C)NC(=O)[C@@H](Cc2ccccc2)NC(=O)[C@H](CCN)NC1=O)C(C)O (stereo partly shown) [Example 12] (X1-[Dab][Thr(3ξ)][Dab][Dab][Dab][dF]L[Dab][Dab][Thr(3ξ)]; lactam 4-C)
OUT: −1.44

IN: Then CC(C)C[C@@H]1NC(=O)[C@@H](Cc2ccccc2)NC(=O)[C@H](CCN)NC(=O)[C@@H](NC(=O)[C@H](CCN)NC(=O)[C@@H](NC(=O)[C@H](CCN)NC(=O)CCC(=O)O)C(C)O)CCNC(=O)[C@H](C(C)O)NC(=O)[C@H](CCN)NC(=O)[C@H](CCN)NC1=O (stereo partly shown) [Example 19] (Suc-[Dab][Thr(3ξ)][Dab][Dab][Dab][dF]L[Dab][Dab][Thr(3ξ)]; lactam 4-C) ?
OUT: −0.14

IN: Field entry: CCCCCCCC(=O)O[C@@H](CCN)C(=O)N[C@H](C(=O)N[C@@H](CCN)C(=O)N[C@H]1CCNC(=O)[C@H](C(C)O)NC(=O)[C@H](CCN)NC(=O)[C@H](CCN)NC(=O)[C@H](CC(C)C)NC(=O)[C@@H](Cc2ccccc2)NC(=O)[C@H](CCN)NC1=O)C(C)O (stereo partly shown) [Reference Example 1, reference compound] (X3-[Thr(3ξ)][Dab][Dab][Dab][dF]L[Dab][Dab][Thr(3ξ)]; lactam 3-C)
OUT: −1.92

----------
# Tested on: E. coli WECO 1003
# Assay type: cell-based, Escherichia coli
# MEASUREMENT_SETUP: WECO 1003, 24 h
# Text: In vitro activity of compounds provided herein may be assessed by standard testing procedures such as the determination of minimum inhibitory concentration (MIC, μg/mL) just as described in “Methods for Dilution Antimicrobial Susceptibility Tests for Bacteria That Grow Aerobically; Approved Standard—Ninth Edition,” published in 2012 by the Clinical and Laboratory Standards Institute, Wayne, Pa., USA. […]
Positions of bridges follow the written chain, without caps; N, C: chain ends. Non-standard residues stand in square brackets, D forms with d. Residues, ends and D or L forms follow the SMILES beside them. ξ: configuration not given here. *: point of attachment. X9 = CCC(C)(C)C(=O)OCCC(=O)O[C@@H](CCN)C(=O)*; Thr(3ξ) = CC(O)[C@H](N)C(=O)O; X7 = CC(=O)O[C@@H](CCN)C(=O)*; X1 = CCC(C)(C)C(=O)OCCC(=O)*; Dab = NCC[C@H](N)C(=O)O
ENDPOINT: Antibacterial activity (MIC) E. coli WECO 1003 (µg/mL)
# unit: µg/mL | format: bare number

IN: Record request: Antibacterial activity (MIC) E. coli WECO 1003 value, item CCC(C)(C)C(=O)OCCC(=O)O[C@@H](CCN)C(=O)N[C@H](C(=O)N[C@@H](CCN)C(=O)N[C@H]1CCNC(=O)[C@H](C(C)O)NC(=O)[C@H](CCN)NC(=O)[C@H](CCN)NC(=O)[C@H](CC(C)C)NC(=O)[C@@H](Cc2ccccc2)NC(=O)[C@H](CCN)NC1=O)C(C)O (stereo partly shown) [Example 34] (X9-[Thr(3ξ)][Dab][Dab][Dab][dF]L[Dab][Dab][Thr(3ξ)]; lactam 3-C)
OUT: 4

IN: Next molecule: CC(=O)O[C@@H](CCN)C(=O)N[C@H](C(=O)N[C@@H](CCN)C(=O)N[C@H]1CCNC(=O)[C@H](C(C)O)NC(=O)[C@H](CCN)NC(=O)[C@H](CCN)NC(=O)[C@H](CC(C)C)NC(=O)[C@@H](Cc2ccccc2)NC(=O)[C@H](CCN)NC1=O)C(C)O (stereo partly shown) [Example 43] (X7-[Thr(3ξ)][Dab][Dab][Dab][dF]L[Dab][Dab][Thr(3ξ)]; lactam 3-C)
OUT: 8

IN: Can you check CCC(C)(C)C(=O)OCCC(=O)N[C@@H](CCN)C(=O)N[C@H](C(=O)N[C@@H](CCN)C(=O)N[C@H]1CCNC(=O)[C@H](C(C)O)NC(=O)[C@H](CCN)NC(=O)[C@H](CCN)NC(=O)[C@H](CC(C)C)NC(=O)[C@@H](Cc2ccccc2)NC(=O)[C@H](CCN)NC1=O)C(C)O (stereo partly shown) [Example 12] (X1-[Dab][Thr(3ξ)][Dab][Dab][Dab][dF]L[Dab][Dab][Thr(3ξ)]; lactam 4-C) next?
OUT: 2

----------
# Test system: E. coli WECO 1003
# Format: cell-based, Escherichia coli
# MEASUREMENT_SETUP: WECO 1003, 24 h
Positions of bridges follow the written chain, without caps; N, C: chain ends. Non-standard residues stand in square brackets, D forms with d. Residues, ends and D or L forms follow the SMILES beside them. ξ: configuration not given here. *: point of attachment. X8 = NCC[C@H](OC(=O)Cc1ccc(-c2ccccc2)cc1)C(=O)*; X3 = CCCCCCCC(=O)O[C@@H](CCN)C(=O)*; Thr(3ξ) = CC(O)[C@H](N)C(=O)O; Dab = NCC[C@H](N)C(=O)O
Consider the following compounds; for each one, report its Antibacterial activity (MIC) E. coli WECO 1003.
Respond with the bare value in µg/mL.

IN: Look up Antibacterial activity (MIC) E. coli WECO 1003: CC(C)C[C@@H]1NC(=O)[C@@H](Cc2ccccc2)NC(=O)[C@H](CCN)NC(=O)[C@@H](NC(=O)[C@H](CCN)NC(=O)[C@@H](NC(=O)[C@H](CCN)OC(=O)Cc2ccc(-c3ccccc3)cc2)C(C)O)CCNC(=O)[C@H](C(C)O)NC(=O)[C@H](CCN)NC(=O)[C@H](CCN)NC1=O (stereo partly drawn) [Example 2] (X8-[Thr(3ξ)][Dab][Dab][Dab][dF]L[Dab][Dab][Thr(3ξ)]; lactam 3-C)
OUT: 8

IN: Item: CCCCCCCC(=O)O[C@@H](CCN)C(=O)N[C@H](C(=O)N[C@@H](CCN)C(=O)N[C@H]1CCNC(=O)[C@H](C(C)O)NC(=O)[C@H](CCN)NC(=O)[C@H](CCN)NC(=O)[C@H](CC(C)C)NC(=O)[C@@H](Cc2ccccc2)NC(=O)[C@H](CCN)NC1=O)C(C)O (stereo partly drawn) [Reference Example 1, reference compound] (X3-[Thr(3ξ)][Dab][Dab][Dab][dF]L[Dab][Dab][Thr(3ξ)]; lactam 3-C)
OUT: 4

----------
# System: E. coli WECO 1003
# Format: cell-based, Escherichia coli
# MEASUREMENT_SETUP: WECO 1003, 24 h
Positions of bridges follow the written chain, without caps; N, C: chain ends. Non-standard residues stand in square brackets, D forms with d. Residues, ends and D or L forms follow the SMILES beside them. ξ: configuration not given here. *: point of attachment. X6 = NCC[C@H](OC(=O)c1ccc(-c2ccccc2)cc1)C(=O)*; Thr(3ξ) = CC(O)[C@H](N)C(=O)O; X1 = CCC(C)(C)C(=O)OCCC(=O)*; Dab = NCC[C@H](N)C(=O)O; Dap = NC[C@H](N)C(=O)O
Assignment: determine reported Antibacterial activity (MIC) E. coli WECO 1003 for the given compounds.
Give the number; µg/mL is assumed, so skip it.

IN: Observed Antibacterial activity (MIC) E. coli WECO 1003 on E. coli WECO 1003 for CC(C)C[C@@H]1NC(=O)[C@@H](Cc2ccccc2)NC(=O)[C@H](CCN)NC(=O)[C@@H](NC(=O)[C@H](CCN)NC(=O)[C@@H](NC(=O)[C@H](CCN)OC(=O)c2ccc(-c3ccccc3)cc2)C(C)O)CCNC(=O)[C@H](C(C)O)NC(=O)[C@H](CCN)NC(=O)[C@H](CCN)NC1=O (some centres unmarked) [Example 3] (X6-[Thr(3ξ)][Dab][Dab][Dab][dF]L[Dab][Dab][Thr(3ξ)]; lactam 3-C) , please.
OUT: 4

IN: Field entry: CCC(C)(C)C(=O)OCCC(=O)N[C@@H](CN)C(=O)N[C@H](C(=O)N[C@@H](CCN)C(=O)N[C@H]1CCNC(=O)[C@H](C(C)O)NC(=O)[C@H](CCN)NC(=O)[C@H](CCN)NC(=O)[C@H](CC(C)C)NC(=O)[C@@H](Cc2ccccc2)NC(=O)[C@H](CCN)NC1=O)C(C)O (some centres unmarked) [Example 35] (X1-[Dap][Thr(3ξ)][Dab][Dab][Dab][dF]L[Dab][Dab][Thr(3ξ)]; lactam 4-C)
OUT: 1

The measurements presented in this section are drawn from patent US9771394B2.
